Overview of recorded IC50 for various compounds
system: CCRF-CEM; assay: Cytostatic activity to the compound against CEM cell line; format: functional, cell-based; settings: Homo sapiens
Just the number in µM, nothing appended.

A selection of reference data follows.
compound	subject-of-test	quantity-unit	IC50
CN[C@H](CC(C)C)C(=O)N[C@H]1C(=O)N[C@@H](CC(N)=O)C(=O)N[C@H]2C(=O)N[C@H]3C(=O)N[C@H](C(=O)N[C@H](C(=O)NCC45CC6CC(CC(C6)C4)C5)c4cc(O)cc(O)c4-c4cc3ccc4O)[C@H](O)c3ccc(cc3)Oc3cc2cc(c3O)Oc2ccc(cc2Cl)[C@H]1O	CCRF-CEM	µM	148
NCCCCCCCCCCNC(=O)[C@H]1NC(=O)[C@H]2NC(=O)[C@H](NC(=O)[C@@H]3NC(=O)[C@H](CC(N)=O)NC(=O)[C@H](N)[C@H](O)c4ccc(c(Cl)c4)Oc4cc3cc(c4O)Oc3ccc(cc3Cl)[C@H]2O)c2ccc(O)c(c2)-c2c(O)cc(O)cc21	CCRF-CEM	µM	139
CN[C@H](CC(C)C)C(=O)N[C@H]1C(=O)N[C@@H](CC(N)=O)C(=O)N[C@H]2C(=O)N[C@H]3C(=O)N[C@H](C(=O)N[C@H](C(=O)NCCCCCCCCCCN)c4cc(O)cc(O)c4-c4cc3ccc4O)[C@H](O)c3ccc(cc3)Oc3cc2cc(c3O)Oc2ccc(cc2)[C@H]1O	CCRF-CEM	µM	109

Now turn to the next compound.
Return reported IC50; argument: CN[C@H](CC(C)C)C(=O)N[C@H]1C(=O)N[C@@H](CC(N)=O)C(=O)N[C@H]2C(=O)N[C@H]3C(=O)N[C@H](C(=O)N[C@H](C(=O)NC4C5CC6CC(C5)CC4C6)c4cc(O)cc(O)c4-c4cc3ccc4O)[C@H](O)c3ccc(cc3)Oc3cc2cc(c3O)Oc2ccc(cc2)[C@H]1O (stereo partly specified)
185

###

system: L1210; test: Cytostatic activity against L1210 cell line; format: functional, cell-based; settings: Mus musculus
measurement-label: IC50

molecular-string	IC50
NC(=O)C[C@@H]1NC(=O)[C@H](N)[C@H](O)c2ccc(c(Cl)c2)Oc2cc3cc(c2O)Oc2ccc(cc2Cl)[C@@H](O)[C@@H]2NC(=O)[C@H](NC(=O)[C@@H]3NC1=O)c1ccc(O)c(c1)-c1c(O)cc(O)cc1[C@@H](C(=O)NCC13CC4CC(CC(C4)C1)C3)NC2=O	≥ 250 µM

Return reported IC50; argument: `CN[C@H](CC(C)C)C(=O)N[C@H]1C(=O)N[C@@H](CC(N)=O)C(=O)N[C@H]2C(=O)N[C@H]3C(=O)N[C@H](C(=O)N[C@H](C(=O)O)c4cc(O)cc(O)c4-c4cc3ccc4O)[C@H](O)c3ccc(cc3)Oc3cc2cc(c3O)Oc2ccc(cc2)[C@H]1O`
> 250 µM

###

Overview of recorded pIC50 for various compounds
tested on: L1210; assay: Cytostatic activity against L1210 cell line; type: functional, cell-based; details: Mus musculus
Entry type: numeric. Quantity: pIC50, the -log10 of concentration in molar units.

compound	subject-of-test	measurement-label	observed-measurement
CN[C@H](CC(C)C)C(=O)N[C@H]1C(=O)N[C@@H](CC(N)=O)C(=O)N[C@H]2C(=O)N[C@H]3C(=O)N[C@H](C(=O)N[C@H](C(=O)NCC45CC6CC(CC(C6)C4)C5)c4cc(O)cc(O)c4-c4cc3ccc4O)[C@H](O)c3ccc(cc3)Oc3cc2cc(c3O)Oc2ccc(cc2)[C@H]1O	L1210	pIC50	4.24
CN[C@H](CC(C)C)C(=O)N[C@H]1C(=O)N[C@@H](CC(N)=O)C(=O)N[C@H]2C(=O)N[C@H]3C(=O)N[C@H](C(=O)N[C@H](C(=O)NC4C5CC6CC(C5)CC4C6)c4cc(O)cc(O)c4-c4cc3ccc4O)[C@H](O)c3ccc(cc3)Oc3cc2cc(c3O)Oc2ccc(cc2)[C@H]1O (some centres not stated)	L1210	pIC50	3.89
CN[C@H](CC(C)C)C(=O)N[C@H]1C(=O)N[C@@H](CC(N)=O)C(=O)N[C@H]2C(=O)N[C@H]3C(=O)N[C@H](C(=O)N[C@H](C(=O)NCCCCCCCCCCN)c4cc(O)cc(O)c4-c4cc3ccc4O)[C@H](O)c3ccc(cc3)Oc3cc2cc(c3O)Oc2ccc(cc2)[C@H]1O	L1210	pIC50	3.84

Now turn to the next compound.
Return reported pIC50; argument: `CN[C@H](CC(C)C)C(=O)N[C@H]1C(=O)N[C@@H](CC(N)=O)C(=O)N[C@H]2C(=O)N[C@H]3C(=O)N[C@H](C(=O)N[C@H](C(=O)NCC45CC6CC(CC(C6)C4)C5)c4cc(O)cc(O)c4-c4cc3ccc4O)[C@H](O)c3ccc(cc3)Oc3cc2cc(c3O)Oc2ccc(cc2Cl)[C@H]1O`
4.03

###

system: Enterococcus faecium; test: Minimum inhibitory concentration against glycopeptide susceptible enterococci 568 Enterococcus faecium; format: functional
measurement-label: MIC (µg/mL)
Just the number in µg/mL, nothing appended.

A selection of reference data follows.
molecule	MIC / µg/mL
CN[C@H](CC(C)C)C(=O)N[C@H]1C(=O)N[C@@H](CC(N)=O)C(=O)N[C@H]2C(=O)N[C@H]3C(=O)N[C@H](C(=O)N[C@H](C(=O)NCCCCCCCCCCN)c4cc(O)cc(O)c4-c4cc3ccc4O)[C@H](O)c3ccc(c(Cl)c3)Oc3cc2cc(c3O)Oc2ccc(cc2Cl)[C@H]1O	2
CN[C@H](CC(C)C)C(=O)N[C@H]1C(=O)N[C@@H](CC(N)=O)C(=O)N[C@H]2C(=O)N[C@H]3C(=O)N[C@H](C(=O)N[C@H](C(=O)NCC45CC6CC(CC(C6)C4)C5)c4cc(O)cc(O)c4-c4cc3ccc4O)[C@H](O)c3ccc(c(Cl)c3)Oc3cc2cc(c3O)Oc2ccc(cc2Cl)[C@H]1O	2
CN[C@H](CC(C)C)C(=O)N[C@H]1C(=O)N[C@@H](CC(N)=O)C(=O)N[C@H]2C(=O)N[C@H]3C(=O)N[C@H](C(=O)N[C@H](C(=O)O)c4cc(O)cc(O)c4-c4cc3ccc4O)[C@H](O)c3ccc(cc3)Oc3cc2cc(c3O)Oc2ccc(cc2Cl)[C@H]1O	32

Now turn to the next molecule.
Return reported MIC; argument: CN[C@H](CC(C)C)C(=O)N[C@H]1C(=O)N[C@@H](CC(N)=O)C(=O)N[C@H]2C(=O)N[C@H]3C(=O)N[C@H](C(=O)N[C@H](C(=O)NC4C5CC6CC(C5)CC4C6)c4cc(O)cc(O)c4-c4cc3ccc4O)[C@H](O)c3ccc(cc3)Oc3cc2cc(c3O)Oc2ccc(cc2Cl)[C@H]1O (some centres not stated)
16

###

test system: CCRF-CEM; experiment: Cytostatic activity to the compound against CEM cell line; format: functional, cell-based; conditions: Homo sapiens
pIC50: −log10 of the molar value.
measurement-label: pIC50

A selection of reference data follows.
compound	subject-of-test	observed-measurement
NCCCCCCCCCCNC(=O)[C@H]1NC(=O)[C@H]2NC(=O)[C@H](NC(=O)[C@@H]3NC(=O)[C@H](CC(N)=O)NC(=O)[C@H](N)[C@H](O)c4ccc(c(Cl)c4)Oc4cc3cc(c4O)Oc3ccc(cc3)[C@H]2O)c2ccc(O)c(c2)-c2c(O)cc(O)cc21	CCRF-CEM	3.91
NC(=O)C[C@@H]1NC(=O)[C@H](N)[C@H](O)c2ccc(c(Cl)c2)Oc2cc3cc(c2O)Oc2ccc(cc2)[C@@H](O)[C@@H]2NC(=O)[C@H](NC(=O)[C@@H]3NC1=O)c1ccc(O)c(c1)-c1c(O)cc(O)cc1[C@@H](C(=O)NCC13CC4CC(CC(C4)C1)C3)NC2=O	CCRF-CEM	< 3.60

Return reported pIC50; argument: `CN[C@H](CC(C)C)C(=O)N[C@H]1C(=O)N[C@@H](CC(N)=O)C(=O)N[C@H]2C(=O)N[C@H]3C(=O)N[C@H](C(=O)N[C@H](C(=O)NCC45CC6CC(CC(C6)C4)C5)c4cc(O)cc(O)c4-c4cc3ccc4O)[C@H](O)c3ccc(c(Cl)c3)Oc3cc2cc(c3O)Oc2ccc(cc2Cl)[C@H]1O`
≤ 3.60

Return reported pIC50; argument: `NCCCCCCCCCCNC(=O)[C@H]1NC(=O)[C@H]2NC(=O)[C@H](NC(=O)[C@@H]3NC(=O)[C@H](CC(N)=O)NC(=O)[C@H](N)[C@H](O)c4ccc(cc4)Oc4cc3cc(c4O)Oc3ccc(cc3)[C@H]2O)c2ccc(O)c(c2)-c2c(O)cc(O)cc21`
3.97

Return reported pIC50; argument: `CN[C@H](CC(C)C)C(=O)N[C@H]1C(=O)N[C@@H](CC(N)=O)C(=O)N[C@H]2C(=O)N[C@H]3C(=O)N[C@H](C(=O)N[C@H](C(=O)O)c4cc(O)cc(O)c4-c4cc3ccc4O)[C@H](O)c3ccc(c(Cl)c3)Oc3cc2cc(c3O)Oc2ccc(cc2Cl)[C@H]1O`
< 3.30

Return reported pIC50; argument: CN[C@H](CC(C)C)C(=O)N[C@H]1C(=O)N[C@@H](CC(N)=O)C(=O)N[C@H]2C(=O)N[C@H]3C(=O)N[C@H](C(=O)N[C@H](C(=O)NC4C5CC6CC(C5)CC4C6)c4cc(O)cc(O)c4-c4cc3ccc4O)[C@H](O)c3ccc(c(Cl)c3)Oc3cc2cc(c3O)Oc2ccc(cc2Cl)[C@H]1O (some centres not stated)
< 3.60

Return reported pIC50; argument: NC(=O)C[C@@H]1NC(=O)[C@H](N)[C@H](O)c2ccc(c(Cl)c2)Oc2cc3cc(c2O)Oc2ccc(cc2)[C@@H](O)[C@@H]2NC(=O)[C@H](NC(=O)[C@@H]3NC1=O)c1ccc(O)c(c1)-c1c(O)cc(O)cc1[C@@H](C(=O)NC1C3CC4CC(C3)CC1C4)NC2=O (some centres not stated)
< 3.60

Where do these numbers come from? They come from ChEMBL document CHEMBL1139533.
